Every entry's value here was drawn from PubChem BioAssay (NCI).

# Test system: SR leukemia
# PROCEDURE SUMMARY: NCI-60 one-dose screen, 48 h (100 = growth as untreated, 0 = no growth, -100 = all killed)
# EXPERIMENTAL PARAMETERS: 10 µM
This is part of a sample that, as a whole, favours compounds with a hit. Of some 83,000 tested, about 20% had one in any assay.
MEASURED ATTRIBUTE: growth (%)
Number only, in %; omit the unit.

COMPOUND	growth (%)
Nc1ccccc1C(=O)Nc1ccc(Cl)cc1Cl	50
O=C1OC[C@H]2[C@H](c3ccc(O)c(O)c3)c3cc(O)c(O)cc3C[C@H]12	330
Cc1ccc(S(=O)(=O)O)c(C)c1	95.2

SR leukemia / growth / CC(=O)OC1CC2C(C)(C)OC3CC(=O)OCC32C2CCC3(C)C(=CCC3c3ccoc3)C12C (configuration not stated) : value?
91.1

----------
Reported growth by item:
# Test system: LOX IMVI melanoma
# PROCEDURE SUMMARY: NCI-60 one-dose screen, 48 h (100 = growth as untreated, 0 = no growth, -100 = all killed)
# EXPERIMENTAL PARAMETERS: 10 µM
About 83,000 compounds went through this panel and 20% of them were active in at least one assay; those are over-represented in the sample as a whole.
Number only, in %; omit the unit.

MOLECULE	MEASURED TARGET	READOUT UNIT	growth
CCN(CC)c1ccc2nc3ccc(=[N+](CC)CC)cc-3oc2c1	LOX IMVI melanoma	%	-22.7

LOX IMVI melanoma / growth / COc1ccccc1NC(=O)c1cc2cc(Br)ccc2cc1O : value?
3.26

Note, next up: CC(=O)Cc1cc(-c2cc(CC(C)=O)[nH]n2)n[nH]1
96.3

Note, next up: O=[N+]([O-])c1ccc(Sc2ccncn2)c([N+](=O)[O-])c1
4.84

----------
# Tested on: PC-3 prostate
# PROCEDURE SUMMARY: NCI-60 one-dose screen, 48 h (100 = growth as untreated, 0 = no growth, -100 = all killed)
# EXPERIMENTAL PARAMETERS: 10 µM
This is part of a sample that, as a whole, favours compounds with a hit. Of some 83,000 tested, about 20% had one in any assay.
MEASURED ATTRIBUTE: growth (%)
Number only, in %; omit the unit.

Sample answers from the record:
COMPOUND	MEASURED ATTRIBUTE	REPORTED
CCOC(=O)C(=O)C=P(c1ccccc1)(c1ccccc1)c1ccccc1	growth	96.4
OC1CCCc2ccccc21 (stereo not given)	growth	103
O=[N+]([O-])c1ccc(O)c(S(=O)(=O)O)c1	growth	97.3

What value of measured growth is listed for CCOC(=O)C1=C(Nc2ccc(Br)cc2)C(=O)N(CC)C1 ?
101

Note, next up: Cc1ccccc1N=C(c1ccccc1)C1C(=O)c2ccccc2C1=O
59.8

----------
Reported growth by item:
# Tested on: 786-0 renal
# PROCEDURE SUMMARY: NCI-60 one-dose screen, 48 h (100 = growth as untreated, 0 = no growth, -100 = all killed)
# EXPERIMENTAL PARAMETERS: 10 µM
This is part of a sample that, as a whole, favours compounds with a hit. Of some 83,000 tested, about 20% had one in any assay.
Number only, in %; omit the unit.

Sample answers from the record:
COMPOUND	growth [%]
CCOC(=O)c1[nH]c(C)c(C(C)=O)c1C	83.5
CCC(O)CC(CC)CO (stereo not given)	106
Cc1cc2nc(CO)[nH]c2cc1C	107
CNc1nc(NC)c2cn[nH]c2n1	101
C=CCc1cc(C(C)=O)cc(OC)c1O	104
N#CC(=Nc1cccc(F)c1)C1=C(O)c2ccccc2C1=O	97.5
O=c1[nH]n(-c2ccccc2)c(=O)cc1Cl	103
CCOc1ccc(/C=C/C(=O)c2ccccc2)cc1	89.8

Kindly consider the entry below.
What value of measured growth is listed for COc1ccc(C2OC(N)=C(O)C2=O)cc1OC (stereo not given) ?
101
